# System: Huvec
# ASSAY NAME: bFGF Huvec proliferation
# Assay type: cell-based, human
# MEASUREMENT PARAMETERS: Homo sapiens, HUVEC
The molecules listed here are annotated with their IC50.
The reply should contain only the number, in nM.

Example entries and their recorded answers appear below.
In [3]: df
Out[3]:
                                   molecule  measured_target  measured_result
0  Cc1oc2cc(Oc3ccnc4ccsc34)ccc2c1C(=O)Nc1nnc(-c2ccccc2)s1 [Example 106]            Huvec              638
1  CNC(=O)c1c(C)n(C)c2cc(Oc3ccnc4cc(C(=O)N5CC(O)C5)sc34)ccc12 [Example 30]            Huvec            10000
2  Cc1c(C(=O)NC2CC2)c2ccc(Oc3ccnc4cc(C(=O)N5CC[C@@H](O)C5)sc34)cc2n1C [Example 53]            Huvec             7230

QUERY: Form: Entry = CNC(=O)c1c(C)n(C)c2cc(Oc3ccnc4cc(-c5nccs5)sc34)ccc12 [Example 41] | System = Huvec | IC50 = ____
RESULT: 1220

---

Quick list: log10 Ki per entry.
# MEASURED TARGET: unphosphorylated VEGF-R2Δ50 (FLVK) (Homo sapiens, UniProt P35968, DEL940-989/E990V)
# Construct: VEGF-R2Δ50 contains residues 806–939 and 990–1171
# Sequence (P35968 with tags, fused parts or gaps DEL940-989/E990V limits assumed): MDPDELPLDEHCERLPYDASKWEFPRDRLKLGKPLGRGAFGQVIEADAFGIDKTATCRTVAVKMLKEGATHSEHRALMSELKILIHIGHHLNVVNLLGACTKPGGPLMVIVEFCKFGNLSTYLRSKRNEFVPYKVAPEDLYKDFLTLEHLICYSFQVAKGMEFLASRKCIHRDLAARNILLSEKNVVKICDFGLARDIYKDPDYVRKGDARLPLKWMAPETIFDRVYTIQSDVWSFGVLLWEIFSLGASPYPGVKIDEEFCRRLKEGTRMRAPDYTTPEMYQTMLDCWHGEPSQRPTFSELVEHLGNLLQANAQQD
# ASSAY NAME: VEGF-R2 coupled spectrophotometric assay, unphosphorylated VEGF-R2Δ50 (FLVK)
# MEASUREMENT PARAMETERS: unphosphorylated VEGF-R2Δ50
Answers are given as log10 of Ki in nM.

Example entries and their recorded answers appear below.
>>> df
                                   molecule  observable  measured_result
0  CO[C@@H]1CCN(C(=O)c2cc3nccc(Oc4ccc5c(C(=O)NCCO)c(C)sc5c4)c3s2)C1 [Example 123]    log10 Ki             0.42
1  CNCC1CCN(C(=O)c2cc3nccc(Oc4ccc5c(C(=O)NC)c(C)n(C)c5c4)c3s2)C1 (stereo not shown) [Example 46]    log10 Ki             0.81
2  Cc1oc2cc(Oc3ccnc4ccsc34)ccc2c1C(=O)NCCN1CCOCC1 [Example 103]    log10 Ki             0.85
3  Cc1sc2cc(Oc3ccnc4cc(C(=O)N5CCC5)sc34)ccc2c1C(=O)NC1CC1 [Example 127]    log10 Ki            -0.70
4  CNC(=O)c1c(C)n(C)c2cc(Oc3ccnc4cc(-c5nccs5)sc34)ccc12 [Example 41]    log10 Ki             0.52

QUERY: # get_value(readout='log10 Ki', item= CNC(=O)c1c(C)n(C)c2cc(Oc3ccnc4cc(C(=O)N5CCC(CN)C5)sc34)ccc12 (stereo not shown) [Example 45] )
RESULT: 0.67

QUERY: I'd like to know its log10 Ki. The molecule in question is CCCNC(=O)c1c(C)n(C)c2cc(Oc3ccnc4cc(-c5nccs5)sc34)ccc12 [Example 60]
RESULT: 0.34

QUERY: Could you tell me which log10 Ki is on file for Cc1c(C(=O)Nc2ccccn2)c2ccc(Oc3ccnc4cc(-c5nccn5C)sc34)cc2n1C [Example 69] ?
RESULT: -0.52

QUERY: Given the molecule CCc1oc2cc(Oc3ccnc4cc(C(=O)N5CC[C@@H](O)C5)sc34)ccc2c1C(=O)NC [Example 95] , what is its reported log10 Ki?
RESULT: -0.07

QUERY: Looking for the measured log10 Ki of CNC(=O)c1c(C)oc2cc(Oc3ccnc4cc(C(=O)N5CC[C@@H](OC)C5)sc34)ccc12 [Example 12] , can you help?
RESULT: -0.50

QUERY: Reported log10 Ki for CNC(=O)c1c(C)n(C)c2cc(Oc3ccnc4cc(-c5cncnc5)sc34)ccc12 [Example 39] : what is it?
RESULT: 1.67

QUERY: Need log10 Ki, item CNC(=O)c1c(C)oc2cc(Oc3ccnc4cc(-c5nc(CO)cs5)sc34)ccc12 [Example 81]
RESULT: -0.70

QUERY: // log10 Ki lookup, key: Cc1c(C(=O)NCC(C)C)c2ccc(Oc3ccnc4cc(-c5nccs5)sc34)cc2n1C [Example 67]
RESULT: 1.10

QUERY: # log10 Ki lookup, item COC[C@@H]1CCCN1C(=O)c1cc2nccc(Oc3ccc4c(C(=O)NCC(C)C)c(C)oc4c3)c2s1 (stereo in doubt) [Example 85]
RESULT: 0.23

QUERY: Name the reported log10 Ki value associated with the molecule Cc1c(C(=O)NCC2CC2)c2ccc(Oc3ccnc4cc(-c5nc(C(C)(C)O)cs5)sc34)cc2n1C [Example 57]
RESULT: 0.99

QUERY: If you can, please state the reported log10 Ki value of Cc1sc2cc(Oc3ccnc4cc(-c5nc(CO)cs5)sc34)ccc2c1C(=O)NCC1CC1 [Example 130] .
RESULT: -0.41
